biological target: CXCR4 (Homo sapiens); construct: endogenous in cells; host or cells: Jurkat T-cell leukemia cells; test: competitive binding assay on Jurkat cells with [125I]FC131 as radioligand
Sequence (P61073 whole entry): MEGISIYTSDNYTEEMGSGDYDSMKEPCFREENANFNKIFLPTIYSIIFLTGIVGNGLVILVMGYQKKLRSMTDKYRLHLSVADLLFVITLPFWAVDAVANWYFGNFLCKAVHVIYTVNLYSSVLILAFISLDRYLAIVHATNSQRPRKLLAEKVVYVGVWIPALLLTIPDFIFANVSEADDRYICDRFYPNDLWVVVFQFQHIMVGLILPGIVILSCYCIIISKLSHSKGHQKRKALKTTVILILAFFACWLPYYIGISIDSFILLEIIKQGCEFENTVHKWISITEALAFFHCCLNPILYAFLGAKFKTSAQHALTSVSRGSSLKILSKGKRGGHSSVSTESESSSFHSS
Where a SMILES comes first, the peptide text is derived from it. Side-chain parts run from the residue outwards. [ ]: non-standard residue; d: D form. The star is where a group is joined. DFO(CSNHC6H4NHCS) = CC(=O)N(O)CCCCCNC(=O)CCC(=O)N(O)CCCCCNC(=O)CCC(=O)N(O)CCCCCNC(=S)Nc1ccc(NC(=S)*)cc1; DOTAGA = O=C(O)CN1CCN(CC(=O)O)CCN(C(CCC(=O)*)C(=O)O)CCN(CC(=O)O)CC1; NODAGA = O=C(O)CN1CCN(CC(=O)O)CCN(C(CCC(=O)*)C(=O)O)CC1; X2 = O=C(O)CN1CCN(CC(=O)O)CCN(Cc2ccc(NC(=S)*)cc2)CC1; NOTA = O=C(O)CN1CCN(CC(=O)O)CCN(CC(=O)*)CC1; 2Nal = N[C@@H](Cc1ccc2ccccc2c1)C(=O)O; dNMeOrn = CN[C@H](CCCN)C(=O)O; 4Amb = NCc1ccc(C(=O)O)cc1
Observable: IC50 (nM)
Lab book: enter the figure in nM, no units written.

The reported IC50 of the compound CC(=O)N(O)CCCCCNC(=O)CCC(=O)N(O)CCCCCNC(=O)CCC(=O)N(O)CCCCCNC(=S)Nc1ccc(NC(=S)NCc2ccc(C(=O)NCCC[C@@H]3C(=O)N[C@@H](CCCNC(=N)N)C(=O)N[C@@H](Cc4ccc5ccccc5c4)C(=O)NCC(=O)N[C@H](Cc4ccc(O)cc4)C(=O)N3C)cc2)cc1 [Compound 8] (cyclo([2Nal]G[dY][dNMeOrn]([4Amb-DFO(CSNHC6H4NHCS)])R)) was 105

Reported IC50 ( CN1C(=O)[C@@H](Cc2ccc(O)cc2)NC(=O)CNC(=O)[C@H](Cc2ccc3ccccc3c2)NC(=O)[C@H](CCCNC(=N)N)NC(=O)[C@H]1CCCNC(=O)c1ccc(CNC(=O)CCC(C(=O)O)N2CCN(CC(=O)O)CCN(CC(=O)O)CC2)cc1 (stereo partly drawn) [Compound 4] (cyclo([2Nal]G[dY][dNMeOrn]([4Amb-NODAGA])R)) ) = 275

Sure, the documented IC50 for CN1C(=O)[C@@H](Cc2ccc(O)cc2)NC(=O)CNC(=O)[C@H](Cc2ccc3ccccc3c2)NC(=O)[C@H](CCCNC(=N)N)NC(=O)[C@H]1CCCNC(=O)c1ccc(CNC(=O)CN2CCN(CC(=O)O)CCN(CC(=O)O)CC2)cc1 [Compound 3] (cyclo([2Nal]G[dY][dNMeOrn]([4Amb-NOTA])R)) is 253

Per the record, CN1C(=O)[C@@H](Cc2ccc(O)cc2)NC(=O)CNC(=O)[C@H](Cc2ccc3ccccc3c2)NC(=O)[C@H](CCCNC(=N)N)NC(=O)[C@H]1CCCNC(=O)c1ccc(CNC(=S)Nc2ccc(CC(CN(CCN(CC(=O)O)CC(=O)O)CC(=O)O)N(CC(=O)O)CC(=O)O)cc2)cc1 (stereo partly drawn) has IC50 of 200

response.value for CN1C(=O)[C@@H](Cc2ccc(O)cc2)NC(=O)CNC(=O)[C@H](Cc2ccc3ccccc3c2)NC(=O)[C@H](CCCNC(=N)N)NC(=O)[C@H]1CCCNC(=O)c1ccc(CNC(=O)CCC(C(=O)O)N2CCN(CC(=O)O)CCN(CC(=O)O)CCN(CC(=O)O)CC2)cc1 (stereo partly drawn) [Compound 2] (cyclo([2Nal]G[dY][dNMeOrn]([4Amb-DOTAGA])R)) (field: IC50) = 654

// IC50 value for CN1C(=O)[C@@H](Cc2ccc(O)cc2)NC(=O)CNC(=O)[C@H](Cc2ccc3ccccc3c2)NC(=O)[C@H](CCCNC(=N)N)NC(=O)[C@H]1CCCNC(=S)Nc1ccc(CN2CCN(CC(=O)O)CCN(CC(=O)O)CC2)cc1 [Compound 5] (cyclo([2Nal]G[dY][dNMeOrn](X2)R)) : 115
